Target: WEE1 (Homo sapiens, UniProt P30291+Q96SW2)
Construct: C-terminal ePL-tagged (DiscoverX, Fremont, CA) full-length WEE1 expression construct; expressed in transfected cells; host or cells: LentiX-HEK293T (Invitrogen), lentivirally transduced; the cells also over-express GSPT1-GN
Sequence (P30291 whole entry): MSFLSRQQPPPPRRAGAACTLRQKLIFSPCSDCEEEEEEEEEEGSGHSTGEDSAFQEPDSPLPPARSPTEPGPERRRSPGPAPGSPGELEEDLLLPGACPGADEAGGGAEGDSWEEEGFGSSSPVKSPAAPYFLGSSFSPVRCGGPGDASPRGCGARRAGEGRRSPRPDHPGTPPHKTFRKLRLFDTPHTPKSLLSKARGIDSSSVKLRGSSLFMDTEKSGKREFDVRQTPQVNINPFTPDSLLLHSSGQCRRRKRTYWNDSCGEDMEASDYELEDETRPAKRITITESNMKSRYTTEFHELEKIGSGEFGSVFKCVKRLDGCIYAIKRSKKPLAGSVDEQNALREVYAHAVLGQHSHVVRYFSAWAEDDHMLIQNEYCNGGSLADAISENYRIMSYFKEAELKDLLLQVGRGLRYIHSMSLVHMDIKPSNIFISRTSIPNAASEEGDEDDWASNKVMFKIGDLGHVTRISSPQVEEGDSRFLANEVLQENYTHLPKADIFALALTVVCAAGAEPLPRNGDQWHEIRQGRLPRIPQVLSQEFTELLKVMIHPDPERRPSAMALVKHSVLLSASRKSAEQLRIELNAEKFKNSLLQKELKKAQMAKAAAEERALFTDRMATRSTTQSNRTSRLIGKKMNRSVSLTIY
Sequence (Q96SW2 whole entry): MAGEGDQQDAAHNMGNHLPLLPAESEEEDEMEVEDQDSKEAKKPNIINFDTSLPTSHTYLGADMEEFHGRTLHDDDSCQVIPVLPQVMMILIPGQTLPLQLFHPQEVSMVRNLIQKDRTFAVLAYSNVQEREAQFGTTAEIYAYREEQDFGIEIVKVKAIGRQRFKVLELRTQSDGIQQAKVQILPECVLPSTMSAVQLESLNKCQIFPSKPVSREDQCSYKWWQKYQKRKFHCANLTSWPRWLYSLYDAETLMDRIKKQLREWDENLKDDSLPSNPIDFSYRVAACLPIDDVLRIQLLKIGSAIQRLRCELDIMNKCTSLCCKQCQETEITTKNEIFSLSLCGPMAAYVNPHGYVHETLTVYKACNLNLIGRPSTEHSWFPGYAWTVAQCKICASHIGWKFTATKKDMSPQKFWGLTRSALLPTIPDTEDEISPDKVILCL
Sequence (Q16531 whole entry partner): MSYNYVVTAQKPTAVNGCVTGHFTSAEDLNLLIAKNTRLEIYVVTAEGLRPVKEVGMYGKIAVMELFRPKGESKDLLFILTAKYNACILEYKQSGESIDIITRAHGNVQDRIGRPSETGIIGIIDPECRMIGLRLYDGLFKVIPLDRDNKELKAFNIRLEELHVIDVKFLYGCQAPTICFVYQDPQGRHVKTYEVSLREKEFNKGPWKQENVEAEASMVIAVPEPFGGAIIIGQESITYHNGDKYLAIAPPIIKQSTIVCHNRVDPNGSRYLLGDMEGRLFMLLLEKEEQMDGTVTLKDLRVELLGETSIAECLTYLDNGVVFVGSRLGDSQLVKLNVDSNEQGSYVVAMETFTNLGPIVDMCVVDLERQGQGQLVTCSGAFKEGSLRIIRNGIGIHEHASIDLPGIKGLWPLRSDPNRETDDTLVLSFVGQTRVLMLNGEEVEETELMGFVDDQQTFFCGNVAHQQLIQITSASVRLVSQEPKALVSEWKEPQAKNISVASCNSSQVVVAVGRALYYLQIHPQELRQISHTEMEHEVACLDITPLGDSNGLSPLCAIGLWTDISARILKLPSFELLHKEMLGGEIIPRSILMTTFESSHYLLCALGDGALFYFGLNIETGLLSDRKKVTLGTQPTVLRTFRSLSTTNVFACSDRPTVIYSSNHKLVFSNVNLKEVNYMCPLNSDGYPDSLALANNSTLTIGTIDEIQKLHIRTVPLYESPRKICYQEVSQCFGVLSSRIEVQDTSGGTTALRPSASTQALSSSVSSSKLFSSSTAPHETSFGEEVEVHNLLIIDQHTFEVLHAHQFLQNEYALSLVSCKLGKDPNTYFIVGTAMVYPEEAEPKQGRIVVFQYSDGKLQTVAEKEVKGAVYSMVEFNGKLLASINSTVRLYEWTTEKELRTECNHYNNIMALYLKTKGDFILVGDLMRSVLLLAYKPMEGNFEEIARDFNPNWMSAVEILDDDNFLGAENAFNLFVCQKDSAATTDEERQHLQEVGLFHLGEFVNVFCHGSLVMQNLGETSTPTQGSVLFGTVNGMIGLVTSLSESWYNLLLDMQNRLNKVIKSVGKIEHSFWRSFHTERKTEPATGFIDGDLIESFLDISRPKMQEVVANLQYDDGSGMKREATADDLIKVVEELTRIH
Experiment: WEE1-ePL degradation assay (293T-LentiX, InCELL Hunter luminescence, 4 hr)
Assay type: cell-based
Conditions: LentiX-HEK293T cells expressing WEE1-ePL, 4 hr incubation; read-out: 293T-LentiX WEE1-ePL Degradation 4 hr EC50
In this section we review reported DC50 values for a set of compounds.
// return numeric value only (unit: nM, not printed)

Below, each entry is followed by its recorded DC50 result.
>  <compound>
COC[C@@H]1CN(Cc2cc(F)c3nc(C(C)(C)O)ccc3c2)C[C@H]1Oc1ccc2c(c1)CN([C@H]1CCC(=O)NC1=O)C2=O

>  <DC50 / nM>
1

$$$$
>  <compound>
O=C1CC[C@H](N2Cc3cc(O[C@H]4CCN(Cc5cc(F)c6nc(N7C[C@H]8CCO[C@H]8C7)ccc6c5)C4)ccc3C2=O)C(=O)N1 (single isomer, unassigned)

>  <DC50 / nM>
1

$$$$
>  <compound>
COC[C@@H]1CN(Cc2ccc3nc(N4C[C@H]5CCO[C@H]5C4)ncc3c2)C[C@H]1Oc1ccc2c(c1)CN([C@H]1CCC(=O)NC1=O)C2=O (single isomer, unassigned)

>  <DC50 / nM>
4

$$$$

Next compound, please.
Can you share its DC50? I mean this compound: COC[C@@H]1CN(Cc2cc(F)c3nc(C4CCC(O)CC4)ncc3c2)C[C@H]1Oc1ccc2c(c1)CN([C@H]1CCC(=O)NC1=O)C2=O (relative stereo)
3
